Every entry's value here was drawn from patent US9126945B2.

- assay_notes: log P by HPLC, EEC Directive 79/831 Annex V.A8, method a)
- Assay type: physicochemical
- applied_conditions: cell prints no method mark; Ex. 40 value equals the log P given under method a)
logP vs 4: less than gives fulfilled; not less than gives not fulfilled.

1) Cn1nc(C(F)(F)F)c(C(F)(F)F)c1C(=O)Nc1cc(Br)c(Br)c(C(=O)NC2(C#N)CC2)c1    fulfilled

Qu. Find out if reported logP for CCn1nc(C(F)(F)C(F)(F)F)c(C(F)(F)F)c1C(=O)Nc1ccc(F)c(C(=O)NC2(C#N)CC2)c1 is less than 4
Ans. fulfilled

Qu. State whether 4 exceeds logP recorded for COC(=O)N(C(=O)c1c(C(F)(F)F)c(C(F)(F)C(F)(F)F)nn1C)c1ccc(Cl)c(C(=O)NC2(C#N)CC2)c1 .
Ans. fulfilled

Qu. Lab note: confirm whether the reported logP for this molecule is below 4, equality not counting. molecule: Cn1nc(C(F)(F)F)c(C(F)(F)F)c1C(=O)Nc1cc(Cl)c(Br)c(C(=O)NC2(C#N)CC2)c1
Ans. fulfilled

Qu. For Cn1nc(C(F)(F)C(F)(F)F)c(C(F)(F)F)c1C(=O)Nc1cc(Br)c(Cl)c(C(=O)NC2(C#N)CC2)c1 , is the recorded logP below the cut-off of 4?
Ans. fulfilled

Qu. Strictly below 4 in logP? CCC(=O)N(C(=O)c1c(C(F)(F)F)c(C(F)(F)C(F)(F)F)nn1C)c1ccc(Cl)c(C(=O)N(C(=O)CC)C2(C#N)CC2)c1
Ans. not fulfilled

====

- assay_notes: log P by HPLC, EEC Directive 79/831 Annex V.A8, method a)
- Assay type: physicochemical
- applied_conditions: reversed-phase C18 HPLC column; HPLC-MS method a), reversed-phase C18, acetonitrile/water with formic acid
Tag: Met if measured chromatographic logP is not below 3, Not met if it is.

Example cases with answers are listed next.
1. Cn1nc(C2(F)CC2)c(Br)c1C(=O)Nc1ccc(Cl)c(C(=O)NC2(C#N)CC2)c1 [Example 1]    Not met
2. CN(C(=O)c1c(C(F)(F)F)c(C(F)(F)F)nn1C)c1ccc(Cl)c(C(=O)NC2(C#N)CC2)c1 [Example 2]    Not met
3. N#CC1(NC(=O)c2cc([N+](=O)[O-])ccc2Cl)CC1    Not met
4. CCCn1nc(C(F)(F)C(F)(F)F)c(C(F)(F)F)c1C(=O)N(CC)c1ccc(Cl)c(C(=O)NC2(C#N)CC2)c1 [Example 50]    Met
5. CC(=O)N(C(=O)c1cc(NC(=O)c2c(C(F)(F)F)c(C(F)(F)C(F)(F)F)nn2C)ccc1Cl)C1(C#N)CC1 [Example 40]    Met
6. Cn1nc(C2(Cl)CC2)c(Cl)c1C(=O)O    Not met
7. COC(=O)c1c(SC)c(C(F)(F)C(F)(F)F)nn1C    Met
8. COC(=O)c1c([N+](=O)[O-])c(C(F)(F)C(F)(F)F)nn1C    Met

Qu. Check if chromatographic logP >= 3 (inclusive). Item: N#CC1(NC(=O)c2cc(N)ccc2Cl)CC1
Ans. Not met

Qu. Check if chromatographic logP >= 3 (inclusive). Item: Cn1nc(C(F)(F)C(F)(F)F)c(C(F)(F)F)c1C(=O)Nc1ccc(Cl)c(C(=O)O)c1
Ans. Met

Qu. Does the reported chromatographic logP for CCOC(=O)c1c(Cl)c(C2(Cl)CC2)nn1C fall at or above the 3 mark?
Ans. Met

Qu. # bool: chromatographic logP of COC(=O)c1c(N)c(C(F)(F)C(F)(F)F)nn1C >= 3
Ans. Not met

====

% Activity dat for assorted compounds
- System: Boophilus microplus
- assay_notes: Boophilus microplus test (BOOPMI injection)
- Type: in vivo
- applied_conditions: BOOPMI injection; 0.032 μg/animal; 7 dat
Write the answer as a number in %, unit excluded.

Qu. Item CCN(C(=O)c1c(C(F)(F)F)c(C(F)(F)C(F)(F)F)nn1C)c1ccc(Cl)c(C(=O)NC2CC2)c1 [Ik-136, reference compound] with Boophilus microplus - % Activity dat?
Ans. 0

Qu. Item: CN(C(=O)c1c(C(F)(F)F)c(C(F)(F)C(F)(F)F)nn1C)c1ccc(Cl)c(C(=O)NC2(C#N)CC2)c1 Test system: Boophilus microplus Read-out: % Activity dat Value: ?
Ans. 100

Qu. Give the reported % Activity dat for CCN(C(=O)c1c(C(F)(F)F)c(C(F)(F)C(F)(F)F)nn1C)c1ccc(Cl)c(C(=O)NC2(C#N)CC2)c1 (system: Boophilus microplus).
Ans. 70

Qu. Item CN(C(=O)c1c(C(F)(F)F)c(C(F)(F)C(F)(F)F)nn1C)c1ccc(Cl)c(C(=O)NC2CC2)c1 [Ik-132, reference compound] with Boophilus microplus - % Activity dat?
Ans. 0

====

- assay_notes: log P by HPLC, EEC Directive 79/831 Annex V.A8, method a)
- Assay type: physicochemical
- applied_conditions: reversed-phase HPLC column (C18); cell prints no method mark; Ex. 40 value equals the log P given under method a)
parameter_measured: chromatographic logP
// return a plain number; no unit text

Example entries and their recorded answers appear below.
1) CCCn1nc(C(F)(F)C(F)(F)F)c(C(F)(F)F)c1C(=O)N(CC)c1ccc(Cl)c(C(=O)NC2(C#N)CC2)c1 [Example 50]    4.06
2) CC(=O)N(C(=O)c1cc(NC(=O)c2c(C(F)(F)F)c(C(F)(F)C(F)(F)F)nn2C)ccc1Cl)C1(C#N)CC1 [Example 40]    3.81

As a next step, examine the molecule that follows.
Qu. Form field: reported chromatographic logP of Cn1nc(C(F)(F)C(F)(F)F)c(C(F)(F)F)c1C(=O)Nc1ccc(Br)c(C(=O)NC2(C#N)CC2)c1 [Example 14]
Ans. 3.31

====

- assay_notes: log P by HPLC, EEC Directive 79/831 Annex V.A8, method a)
- Type: physicochemical
- applied_conditions: cell prints no method mark; Ex. 40 value equals the log P given under method a)
parameter_measured: logP
Number, no unit, nothing else.

1. CCC(=O)N(C(=O)c1c(C(F)(F)F)c(C(F)(F)C(F)(F)F)nn1C)c1ccc(Cl)c(C(=O)NC2(C#N)CC2)c1    3.91

Qu. Recorded logP for CC(C)C(=O)N(C(=O)c1c(C(F)(F)F)c(C(F)(F)C(F)(F)F)nn1C)c1ccc(Cl)c(C(=O)NC2(C#N)CC2)c1 , please?
Ans. 4.38

Qu. Return reported logP; argument: Cn1nc(C(F)(F)C(F)(F)F)c(C(F)(F)F)c1C(=O)N(C(=O)C(C)(C)C)c1ccc(Cl)c(C(=O)NC2(C#N)CC2)c1
Ans. 4.40

Qu. Entry C#CCn1nc(C(F)(F)C(F)(F)F)c(C(F)(F)F)c1C(=O)Nc1ccc(Cl)c(C(=O)NC2(C#N)CC2)c1 has what logP?
Ans. 3.58

Qu. If you can, please state the reported logP value of C=C(C)CN(C(=O)c1c(C(F)(F)F)c(C(F)(F)C(F)(F)F)nn1C)c1ccc(Cl)c(C(=O)NC2(C#N)CC2)c1 .
Ans. 3.78

====

- assay_notes: log P by HPLC, EEC Directive 79/831 Annex V.A8, method a)
- Type: physicochemical
- applied_conditions: cell prints no method mark; Ex. 40 value equals the log P given under method a)
parameter_measured: logP
Output: the number by itself.

// worked examples, logP included
1. CN(C(=O)c1cc(NC(=O)c2c(C(F)(F)F)c(C(F)(F)C(F)(F)F)nn2C)ccc1Cl)C1(C#N)CC1 [Example 62]    3.66
2. Cn1nc(C(F)(F)C(F)(F)F)c(C(F)(F)F)c1C(=O)Nc1ccc(F)c(C(=O)NC2(C#N)CC2)c1 [Example 27]    3.21
3. CCn1nc(C(F)(F)C(F)(F)F)c(C(F)(F)F)c1C(=O)N(C)c1ccc(Cl)c(C(=O)NC2(C#N)CC2)c1 [Example 38]    3.57
4. CCN(C(=O)c1cc(NC(=O)c2c(C(F)(F)F)c(C(F)(F)C(F)(F)F)nn2C)ccc1Cl)C1(C#N)CC1 [Example 61]    3.86
5. CC#CCN(C(=O)c1c(C(F)(F)F)c(C(F)(F)C(F)(F)F)nn1C)c1ccc(Cl)c(C(=O)NC2(C#N)CC2)c1 [Example 30]    3.60

Qu. Request the reported logP associated with CCn1nc(C(F)(F)C(F)(F)F)c(C(F)(F)F)c1C(=O)N(C)c1ccc(F)c(C(=O)N(C)C2(C#N)CC2)c1 [Example 48]
Ans. 3.76

====

- assay_notes: log P by HPLC, EEC Directive 79/831 Annex V.A8, method a)
- Type: physicochemical
- applied_conditions: cell prints no method mark; Ex. 40 value equals the log P given under method a)
class 1 if logP is below 4. class 0 if not; exact matches included in class 0.

1) CC(C)OC(=O)N(C(=O)c1c(C(F)(F)F)c(C(F)(F)C(F)(F)F)nn1C)c1ccc(Cl)c(C(=O)NC2(C#N)CC2)c1    class 0
2) CCn1nc(C(F)(F)C(F)(F)F)c(C(F)(F)F)c1C(=O)Nc1ccc(Cl)c(C(=O)NC2(C#N)CC2)c1    class 1
3) COC(=O)N(C(=O)c1c(C(F)(F)F)c(C(F)(F)C(F)(F)F)nn1C)c1ccc(Cl)c(C(=O)N(C(=O)OC)C2(C#N)CC2)c1    class 0
4) Cn1nc(C(F)(F)C(F)(F)F)c(S(C)(=O)=O)c1C(=O)Nc1ccc(Cl)c(C(=O)NC2(C#N)CC2)c1    class 1
5) CC(=O)N(C(=O)c1c(C(F)(F)F)c(C(F)(F)C(F)(F)F)nn1C)c1ccc(Cl)c(C(=O)NC2(C#N)CC2)c1    class 1

Qu. Determine if CCCn1nc(C(F)(F)C(F)(F)F)c(C(F)(F)F)c1C(=O)N(CC)c1ccc(Cl)c(C(=O)N(CC)C2(C#N)CC2)c1 shows logP strictly lower than 4.
Ans. class 0

Qu. Answer whether the compound CCCn1nc(C(F)(F)C(F)(F)F)c(C(F)(F)F)c1C(=O)N(C)c1ccc(Cl)c(C(=O)N(C)C2(C#N)CC2)c1 has logP strictly less than 4
Ans. class 0

Qu. Please check: logP for CCCn1nc(C(F)(F)C(F)(F)F)c(C(F)(F)F)c1C(=O)Nc1ccc(Cl)c(C(=O)NC2(C#N)CC2)c1 , strictly under 4 or not?
Ans. class 1

Qu. # strict comparison: is reported logP < 4? input = Cn1nc(C(F)(F)C(F)(F)F)c(C(F)(F)F)c1C(=O)N(CC#N)c1ccc(Cl)c(C(=O)NC2(C#N)CC2)c1
Ans. class 1
